Recorded switch fluorescence ratio by entry
Tested on: ATP;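 note: ATP exposure 15 min at 22 °C before imaging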
PROCEDURE_TEXT: switch fluorescence ratio, 500 uM ATP over buffer (Cy3 cluster intensity, sum of 5 cycles each) (fold (ratio)); higher = stronger signal-on switching upon ATP binding; sequences stand for … in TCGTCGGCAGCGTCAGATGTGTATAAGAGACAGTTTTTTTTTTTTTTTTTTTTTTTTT…TC
PROTOCOL_CONDITIONS: aptamer strand: ATP DNA aptamer (quencher-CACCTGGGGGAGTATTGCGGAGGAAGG + anchor), 100 nM annealed; ATP concentration: 500 uM

{"MACROMOLECULE_SEQUENCE": "TTTATATTAA", "switch fluorescence ratio": 1.03}
{"MACROMOLECULE_SEQUENCE": "GTGTGTTGGG", "switch fluorescence ratio": 0.984}
{"MACROMOLECULE_SEQUENCE": "GTGACTCCGA", "switch fluorescence ratio": 1.78}
{"MACROMOLECULE_SEQUENCE": "AGTAGGGGG", "switch fluorescence ratio": 1}
{"MACROMOLECULE_SEQUENCE": "TGTTTGGGCG", "switch fluorescence ratio": 1.03}
{"MACROMOLECULE_SEQUENCE": "GAATGGCGTA", "switch fluorescence ratio": 1.02}
{"MACROMOLECULE_SEQUENCE": "CAGGTTTCGT", "switch fluorescence ratio": 0.989}
{"MACROMOLECULE_SEQUENCE": "ATCAGGGGCA", "switch fluorescence ratio": 1.06}
{"MACROMOLECULE_SEQUENCE": "AGCTAGGCGC", "switch fluorescence ratio": 1.01}
{"MACROMOLECULE_SEQUENCE": "CCGAAGGTTA", "switch fluorescence ratio": 1.09}
{"MACROMOLECULE_SEQUENCE": "AGTCGTCTTG", "switch fluorescence ratio": 0.977}
{"MACROMOLECULE_SEQUENCE": "TCCGGCTATT", "switch fluorescence ratio": 1.11}
{"MACROMOLECULE_SEQUENCE": "CGCAGTTGGA", "switch fluorescence ratio": 1.03}
{"MACROMOLECULE_SEQUENCE": "TTGATGCAA", "switch fluorescence ratio": 1.07}
{"MACROMOLECULE_SEQUENCE": "TATTAGTTAA", "switch fluorescence ratio": 0.992}
{"MACROMOLECULE_SEQUENCE": "CGGGCAGAGG", "switch fluorescence ratio": 0.993}
{"MACROMOLECULE_SEQUENCE": "TTGACTGGTG", "switch fluorescence ratio": 1.02}
{"MACROMOLECULE_SEQUENCE": "GGAGGACTCG", "switch fluorescence ratio": 0.982}
{"MACROMOLECULE_SEQUENCE": "TTTTTGGATA", "switch fluorescence ratio": 1.02}
{"MACROMOLECULE_SEQUENCE": "TAAGGTGGGA", "switch fluorescence ratio": 0.996}
{"MACROMOLECULE_SEQUENCE": "TAAGTTGTAA", "switch fluorescence ratio": 0.999}
{"MACROMOLECULE_SEQUENCE": "TCGACGGGTG", "switch fluorescence ratio": 1.02}
{"MACROMOLECULE_SEQUENCE": "AGGCACGACG", "switch fluorescence ratio": 0.956}
{"MACROMOLECULE_SEQUENCE": "GGGGATAGAG", "switch fluorescence ratio": 1.01}
{"MACROMOLECULE_SEQUENCE": "CCTTTTTCAC", "switch fluorescence ratio": 1.03}
{"MACROMOLECULE_SEQUENCE": "GGTGTTAGAG", "switch fluorescence ratio": 0.985}
{"MACROMOLECULE_SEQUENCE": "TTAGTTTGCT", "switch fluorescence ratio": 1.01}
{"MACROMOLECULE_SEQUENCE": "CAAGGCAAGG", "switch fluorescence ratio": 1.07}
{"MACROMOLECULE_SEQUENCE": "GGTTTGCTGT", "switch fluorescence ratio": 0.99}
{"MACROMOLECULE_SEQUENCE": "TGTTTTATGT", "switch fluorescence ratio": 0.989}
{"MACROMOLECULE_SEQUENCE": "TCGGTTTCAA", "switch fluorescence ratio": 1.01}
{"MACROMOLECULE_SEQUENCE": "TTCGGGAAGC", "switch fluorescence ratio": 1.02}
{"MACROMOLECULE_SEQUENCE": "GCCGTCGGCA", "switch fluorescence ratio": 1}
{"MACROMOLECULE_SEQUENCE": "ATTACGAAGA", "switch fluorescence ratio": 1.01}
{"MACROMOLECULE_SEQUENCE": "TGCCGCAAAA", "switch fluorescence ratio": 1.82}
{"MACROMOLECULE_SEQUENCE": "GAGAGTGGCA", "switch fluorescence ratio": 0.988}
{"MACROMOLECULE_SEQUENCE": "ACAGCCACGG", "switch fluorescence ratio": 1.18}
{"MACROMOLECULE_SEQUENCE": "GGGTAAATTT", "switch fluorescence ratio": 0.996}
{"MACROMOLECULE_SEQUENCE": "AACTTTTTAC", "switch fluorescence ratio": 1.05}
{"MACROMOLECULE_SEQUENCE": "GCCGGGGGTA", "switch fluorescence ratio": 1.04}
{"MACROMOLECULE_SEQUENCE": "TTTGGCTTTC", "switch fluorescence ratio": 1.06}
{"MACROMOLECULE_SEQUENCE": "TGATTCGTAC", "switch fluorescence ratio": 1.03}
{"MACROMOLECULE_SEQUENCE": "CGTTTTGCGG", "switch fluorescence ratio": 1.04}
